# Test System: CCK receptor (brain)
# Construct: Brain
# Sequence (P32239 whole entry): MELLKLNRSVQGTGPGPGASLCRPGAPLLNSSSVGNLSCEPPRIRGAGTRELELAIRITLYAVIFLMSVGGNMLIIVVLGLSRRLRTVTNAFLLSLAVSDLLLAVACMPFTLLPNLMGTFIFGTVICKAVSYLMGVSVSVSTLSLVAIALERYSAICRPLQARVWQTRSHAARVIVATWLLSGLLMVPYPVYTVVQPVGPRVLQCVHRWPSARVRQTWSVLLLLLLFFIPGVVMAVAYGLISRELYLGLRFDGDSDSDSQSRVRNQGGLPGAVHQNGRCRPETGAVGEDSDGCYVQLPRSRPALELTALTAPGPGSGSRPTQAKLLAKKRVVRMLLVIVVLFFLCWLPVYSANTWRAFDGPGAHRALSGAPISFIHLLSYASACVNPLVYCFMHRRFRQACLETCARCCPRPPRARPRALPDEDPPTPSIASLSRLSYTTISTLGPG
# Method: CCK receptor-binding, brain (125I-CCK-8)
Quantity Measured: IC50

Bench note: what IC50 did CCc1cc2c(s1)-n1c(C)nnc1C(NC(=O)c1cc3ccccc3[nH]1)N=C2c1ccccc1Cl (stereo not shown) [Compound A] show?
1.8 nM

Reference source: patent US4992437A
